- measurement.target: KRAS (Homo sapiens, UniProt P01116)
- Sequence (P01116 1-188 isoform P01116-2): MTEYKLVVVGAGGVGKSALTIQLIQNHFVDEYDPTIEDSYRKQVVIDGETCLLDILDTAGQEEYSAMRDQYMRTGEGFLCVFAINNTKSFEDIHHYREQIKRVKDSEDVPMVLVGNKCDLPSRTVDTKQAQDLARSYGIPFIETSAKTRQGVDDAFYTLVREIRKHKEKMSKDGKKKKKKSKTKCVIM
// reported IC50 for each item listed
outcome.measure: IC50

1. CC(=O)[O-].[Ag+] [Ag (CH 3COO), Silver acetate] ... < 1000 nM
2. [Cl][Au]([Cl])[Cl] [AuCl3, Gold(III) chloride] ... < 1000 nM

====

- measurement.target: biotinylated GST (Schistosoma japonicum, UniProt P08515)
- Sequence (P08515 whole entry): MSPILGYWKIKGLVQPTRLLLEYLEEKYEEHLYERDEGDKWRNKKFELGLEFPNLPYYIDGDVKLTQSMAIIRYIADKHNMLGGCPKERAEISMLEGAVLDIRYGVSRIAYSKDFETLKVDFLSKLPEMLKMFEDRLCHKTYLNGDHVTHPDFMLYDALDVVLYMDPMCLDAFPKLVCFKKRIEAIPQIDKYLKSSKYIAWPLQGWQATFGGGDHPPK
- experiment.notes: Control assay (AlphaScreen Shortcut)
- Assay type: biochemical
- reported.conditions: Batch 1; read-out: Control assay IC50
pIC50: −log10 of the molar value.
outcome.measure: pIC50

1) [Cl][Pd][Cl] [PdCl2, Palladium(II) chloride] ... 5.24
